# experimental_target: human recombinant adrenergic α1D receptor (Homo sapiens, UniProt P25100)
# Construct: expressed in transfected cells; host or cells: HEK-293
# Sequence (P25100 whole entry): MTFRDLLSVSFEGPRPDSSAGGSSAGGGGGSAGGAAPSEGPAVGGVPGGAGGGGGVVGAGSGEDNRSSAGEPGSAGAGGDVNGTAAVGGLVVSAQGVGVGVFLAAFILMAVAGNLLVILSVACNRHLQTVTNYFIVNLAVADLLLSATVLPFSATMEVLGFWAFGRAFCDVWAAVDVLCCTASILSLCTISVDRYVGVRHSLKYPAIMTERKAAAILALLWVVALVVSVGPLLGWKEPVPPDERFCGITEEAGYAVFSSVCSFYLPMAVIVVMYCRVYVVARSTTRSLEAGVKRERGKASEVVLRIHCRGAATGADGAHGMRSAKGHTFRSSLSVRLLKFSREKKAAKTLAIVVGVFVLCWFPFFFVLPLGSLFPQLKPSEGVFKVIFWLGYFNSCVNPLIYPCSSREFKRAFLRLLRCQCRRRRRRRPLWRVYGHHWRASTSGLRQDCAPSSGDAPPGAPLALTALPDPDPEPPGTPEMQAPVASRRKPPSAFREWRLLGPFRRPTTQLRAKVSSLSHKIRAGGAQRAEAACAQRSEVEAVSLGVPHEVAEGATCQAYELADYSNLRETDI
# procedure_text: Radioligand binding, adrenergic α1D ([3H]Prazosin)
# settings: read-out: Percentage inhibition of ligand binding, Adrenergic α1D (0.1 μM), compound at 0.1 μM; [3H]Prazosin; repeat datapoints each shown
observed_property: inhibition at 0.1 µM (%)

# example entries with known answers
CNC(=O)c1ccc(/C(C)=C/n2c3c(c4cc(C)ccc42)CN(C)CC3)cn1 [compound 122] :: 84
C/C(=C\n1c2c(c3cc(C)ccc31)CN(C)CC2)c1cccc2ccccc12 [compound 113] :: 3
Cc1ccc(C(O)Cn2c3c(c4cc(C)ccc42)CN(C)CC3)cc1 (racemic) [compound 183] :: 36
C/C(=C\n1c2c(c3cc(C)ccc31)CN(C)CC2)c1ccncn1 [compound 101] :: 45

(1) Cc1ccc2c(c1)c1c(n2CCc2cncc(Cl)c2)CCN(C)CC1 [compound 92]
(2) CCC1c2c(c3cc(Cl)ccc3n2CC(C)(O)c2ccc(F)cc2)CCN1C (centres unmarked) [II-161]
(3) C/C(=C\n1c2c(c3cc(Cl)ccc31)CCN(C)CC2)c1ccc(Cl)cc1Cl [compound 229]
(4) COc1ccc(/C(C)=C/n2c3c(c4cc(C)ccc42)CCN(C)CC3)c(F)c1 [compound 222]
*Q* Sort low-to-high on inhibition at 0.1 µM, please. Returns: the labels listed in the requested order.
*A* 2, 3, 1, 4
(2: 2%, 3: 8%, 1: 46%, 4: 101%)
